Data credit: the supplement of paper PMC10567573

B1: OAS1 (parent)
chain: TPAKSLDKFIEDYLLPDTCFRMQI

variants of: B1; test: protein stability index of a GFP-peptide fusion (GPS, HEK-293T) (PSI 1-6); higher = more stable; conditions: c terminus: a fixed tail appended;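 also: lentivirally expressed fusions sorted by FACS into six bins by GFP to DsRed ratio, PSI derived from sequencing read proportions per bin multiplied by bin number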
measure-name: protein stability index
API note: the answer field is a bare number with no unit suffix.

M22Y ... 2.9
S5W ... 1.99
K4L ... 2.23
C19D ... 1.62
L6A ... 2.89

Kindly consider the entry below.
IN: State the recorded protein stability index for this entry: E11S
OUT: 1.97
